TARGET_OF_ASSAY: T1, scHLA-B27-mmH (engineered HLA-B*27 ectodomain in-line fusion protein) (human (HLA-B*2705, beta-2 …))
T1 construct: also called soluble HLA-B*27 fusion protein
ASSAY_PROTOCOL: SPR (Biacore), mAb captured, 25 C, PBS pH 5.75
QUANTITY: t1/2

{"columns": ["BINDER", "RESULT"],
 "data": [
  ["H4H2524P (antibody, V domains shown) VH: QVQLQESGPGLVKPSQTLSLTCTVSGGSISSDGYYWSWIRQHPGKGLEWIGYIYYSGNTYYNPSLKSRVTISVDTSKNHFSLKLSSVTAADTAVYYCTRDPRGITGTHYFDYWGQGTLVTVSS VL: EIVLTQSPGTLSLSPGERATLSCRTSQSVSSSYLAWYQQKPGQAPRLLIYGASSRATGIPDRFSGSGSGTDFTLTISRLEPEDFAVYYCQQFGTSLFTFGPGTKVDIK", "2 min"],
  ["H4H2490N2 (antibody, V domains shown) VH: QVQLVQSGADVKWPGASVKVSCRASGYTFTGYYMHWVRQAPGQGLEWMGWINPNNGGTNYAQKFQGRVTMTRDTSITTVYMELSSLISDDTAVYYCARGEDLELRNYYYYGMDVWGQGTSVTVSS VL: DIQMTQSPSSLSASVGDRVTITCRASQSISSYLNWYQQKPGKAPKLLIYAASNLQSGVPSRFSGSGFGTDFTLTISSLQSEDFATYYCQQTYSTRTFGRGTKVEIK", "2 min"],
  ["H4H2542P (antibody, V domains shown) VH: EVQLVESGGGLVQPGRSLRLSCAASGFTFDDYAMHWVRQGPGKGLEWVSGISWNGRTMDHADSVKGRFTISRDNAKNSLYLQMNSLRNDDTGVYFCAKEGIPVAGTYFHFYGMDVWGQGTTVTVSS VL: EIVMTQSPATLSVSPGERVTLSCRASQSIGNYLAWYQQKPGQAPRLLIYGTSTRATGIPARFSGSGSGTEFTLTFSSLQSEDFAVYYCQQYNHWPLTFGGGTKVEIK", "1 min"],
  ["H4H2534S (antibody, V domains shown) VH: EVQLVESGPGLVKPAQTLSLTCTVSGGSINSGGNYWSWIRQHPGKGLEWIGYIYYSGNTYYNPSLKSRVTISVDMSKNQFSLKLRSVTAADTAVYFCARDPRGITGTHHFDCWGQGTLVTVSS VL: EIVLTQSPGTLSLSPGERATLSCRTSQSVSSRYLAWYQQKPGQAPRLLIYDASSRATGIPDRFSGSGSGTDFTLTISRLEPEDFAVYYCQQFGPSLFTFGPGTKVDIK", "5 min"],
  ["H4H2559P (antibody, V domains shown) VH: QVQLVQSGAEVKKPGASVKVSCKASGYTFTDYFLHWVRQAPGQGLEWVGWINPNSGGTNFAQKFQGRVTMTRDTSISTAYMDLSRLRSDDTAVYYCARKAGYTSSWFDYWGQGTLVTVSS VL: DIVMTQSPDSLAVSLGERATINCKSSQSILYSFNNKNYLAWYQQKIGQPPMLLIYWASTRESGVPDRFSGSGSGTDFTLTISRLQAEDVAVYYCQQYYSSITFGQGTRLEIK", "43 min"]
]}

Data origin, for the record: patent US20130259876A1
